Attribution: patent US20100260765A1

target: human KDR (VEGFR2) on cells (human, UniProt P35968 20-1356); assay: cell-based or functional assay
Sequence (P35968 20-1356): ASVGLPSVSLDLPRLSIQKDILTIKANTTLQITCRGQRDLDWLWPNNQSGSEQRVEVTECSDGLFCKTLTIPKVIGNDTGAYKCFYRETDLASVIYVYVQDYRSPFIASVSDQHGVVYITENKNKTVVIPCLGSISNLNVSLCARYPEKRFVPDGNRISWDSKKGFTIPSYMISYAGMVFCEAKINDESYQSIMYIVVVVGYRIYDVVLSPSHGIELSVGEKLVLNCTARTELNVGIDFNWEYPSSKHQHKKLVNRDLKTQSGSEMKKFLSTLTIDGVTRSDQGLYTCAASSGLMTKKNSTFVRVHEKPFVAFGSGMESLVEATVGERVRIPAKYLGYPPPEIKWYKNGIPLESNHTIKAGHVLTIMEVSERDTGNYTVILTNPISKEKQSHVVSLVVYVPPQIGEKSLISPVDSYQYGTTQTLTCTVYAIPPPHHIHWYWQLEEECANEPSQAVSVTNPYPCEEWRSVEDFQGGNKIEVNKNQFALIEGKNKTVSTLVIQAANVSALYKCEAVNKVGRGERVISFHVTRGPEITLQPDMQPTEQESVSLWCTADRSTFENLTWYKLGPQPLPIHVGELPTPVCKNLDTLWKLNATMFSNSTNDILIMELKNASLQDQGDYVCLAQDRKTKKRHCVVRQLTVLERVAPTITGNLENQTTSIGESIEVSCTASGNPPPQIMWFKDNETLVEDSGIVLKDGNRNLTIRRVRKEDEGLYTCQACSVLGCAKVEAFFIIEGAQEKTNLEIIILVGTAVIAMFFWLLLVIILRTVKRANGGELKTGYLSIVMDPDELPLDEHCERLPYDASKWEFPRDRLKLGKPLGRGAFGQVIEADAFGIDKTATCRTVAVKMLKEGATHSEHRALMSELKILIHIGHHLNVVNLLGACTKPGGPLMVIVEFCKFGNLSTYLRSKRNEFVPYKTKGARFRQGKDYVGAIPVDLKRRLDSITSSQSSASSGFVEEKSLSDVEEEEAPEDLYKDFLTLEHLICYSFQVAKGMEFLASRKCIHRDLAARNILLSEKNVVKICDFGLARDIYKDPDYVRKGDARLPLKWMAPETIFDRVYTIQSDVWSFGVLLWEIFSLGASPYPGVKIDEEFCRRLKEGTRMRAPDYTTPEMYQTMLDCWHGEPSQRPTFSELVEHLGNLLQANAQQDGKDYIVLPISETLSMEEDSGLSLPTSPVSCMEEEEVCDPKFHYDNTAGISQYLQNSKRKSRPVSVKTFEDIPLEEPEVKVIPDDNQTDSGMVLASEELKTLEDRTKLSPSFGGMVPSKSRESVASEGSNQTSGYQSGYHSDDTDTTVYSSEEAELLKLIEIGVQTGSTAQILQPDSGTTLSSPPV
Would you mind labelling by % Inhibition of VEGF165-mediated pTyr Activity, n = 3? At or over 50% is yes, under is no.

The following binders have reported results that may help.
1) anti-KDR monoclonal antibody 30F6 (antibody, V domains shown, Fully human mAb from XenoMouse (IgG2 or IgG4 strain); hybridoma supernatant) VH: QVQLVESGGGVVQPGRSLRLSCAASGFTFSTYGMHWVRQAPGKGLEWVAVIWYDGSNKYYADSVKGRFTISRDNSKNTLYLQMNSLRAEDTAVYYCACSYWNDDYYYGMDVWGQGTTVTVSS VL: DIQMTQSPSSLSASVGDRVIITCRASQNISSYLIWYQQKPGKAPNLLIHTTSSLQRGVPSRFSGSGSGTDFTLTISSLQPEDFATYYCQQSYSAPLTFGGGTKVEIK = yes
2) anti-KDR monoclonal antibody 21A1 (antibody, V domains shown, Fully human mAb from XenoMouse (IgG2 or IgG4 strain); hybridoma supernatant) VH: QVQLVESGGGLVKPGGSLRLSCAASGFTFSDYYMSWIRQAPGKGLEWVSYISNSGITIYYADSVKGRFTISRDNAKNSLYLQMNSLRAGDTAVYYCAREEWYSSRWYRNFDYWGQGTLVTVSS VL: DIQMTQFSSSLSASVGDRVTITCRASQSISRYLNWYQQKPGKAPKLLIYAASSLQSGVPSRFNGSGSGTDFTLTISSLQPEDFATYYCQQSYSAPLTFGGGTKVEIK = yes
3) anti-KDR monoclonal antibody 24B3 (antibody, V domains shown, Fully human mAb from XenoMouse (IgG2 or IgG4 strain); hybridoma supernatant) VH: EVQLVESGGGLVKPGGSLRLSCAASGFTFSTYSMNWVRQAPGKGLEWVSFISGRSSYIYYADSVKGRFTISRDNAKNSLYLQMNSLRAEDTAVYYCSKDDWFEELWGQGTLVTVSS VL: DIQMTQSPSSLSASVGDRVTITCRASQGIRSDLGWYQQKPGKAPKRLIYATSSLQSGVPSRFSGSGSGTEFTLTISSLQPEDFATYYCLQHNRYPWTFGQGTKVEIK = no

Check this binder for % Inhibition of VEGF165-mediated pTyr Activity, n = 3 at or above 50%: anti-KDR monoclonal antibody 32F4 (antibody, V domains shown, Fully human mAb from XenoMouse (IgG2 or IgG4 strain); hybridoma supernatant) VH: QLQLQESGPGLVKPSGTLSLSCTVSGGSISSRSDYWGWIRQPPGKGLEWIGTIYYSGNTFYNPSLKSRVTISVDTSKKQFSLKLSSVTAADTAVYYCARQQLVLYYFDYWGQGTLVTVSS VL: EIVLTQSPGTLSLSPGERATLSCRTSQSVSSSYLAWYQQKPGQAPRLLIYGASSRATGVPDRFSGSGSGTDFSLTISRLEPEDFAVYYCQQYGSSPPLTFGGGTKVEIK yes

Check this binder for % Inhibition of VEGF165-mediated pTyr Activity, n = 3 at or above 50%: anti-KDR monoclonal antibody 29H3 (antibody, V domains shown, Fully human mAb from XenoMouse (IgG2 or IgG4 strain); hybridoma supernatant) VH: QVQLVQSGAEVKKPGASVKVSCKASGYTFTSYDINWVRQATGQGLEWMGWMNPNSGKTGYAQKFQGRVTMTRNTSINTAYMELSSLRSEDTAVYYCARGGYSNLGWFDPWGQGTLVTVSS VL: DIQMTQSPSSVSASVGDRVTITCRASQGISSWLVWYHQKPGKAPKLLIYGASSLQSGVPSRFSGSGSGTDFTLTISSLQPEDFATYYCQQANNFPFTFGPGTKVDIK yes

Check this binder for % Inhibition of VEGF165-mediated pTyr Activity, n = 3 at or above 50%: anti-KDR monoclonal antibody 29F7 (antibody, V domains shown, Fully human mAb from XenoMouse (IgG2 or IgG4 strain); hybridoma supernatant) VH: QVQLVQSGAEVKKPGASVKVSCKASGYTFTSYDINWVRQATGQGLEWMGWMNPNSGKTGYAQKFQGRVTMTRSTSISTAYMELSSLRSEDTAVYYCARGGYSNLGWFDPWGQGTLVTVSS VL: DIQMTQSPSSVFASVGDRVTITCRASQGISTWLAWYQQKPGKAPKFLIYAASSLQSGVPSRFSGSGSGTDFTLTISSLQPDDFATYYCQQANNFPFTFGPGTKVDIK yes

Check this binder for % Inhibition of VEGF165-mediated pTyr Activity, n = 3 at or above 50%: anti-KDR monoclonal antibody 33B1 (antibody, V domains shown, Fully human mAb from XenoMouse (IgG2 or IgG4 strain); hybridoma supernatant) VH: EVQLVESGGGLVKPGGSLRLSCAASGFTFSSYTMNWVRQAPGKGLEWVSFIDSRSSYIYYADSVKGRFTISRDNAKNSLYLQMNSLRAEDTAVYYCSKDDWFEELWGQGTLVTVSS VL: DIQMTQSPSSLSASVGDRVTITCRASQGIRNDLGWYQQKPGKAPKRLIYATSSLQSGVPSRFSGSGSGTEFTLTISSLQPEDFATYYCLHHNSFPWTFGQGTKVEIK no

Check this binder for % Inhibition of VEGF165-mediated pTyr Activity, n = 3 at or above 50%: anti-KDR monoclonal antibody 21H6 (antibody, V domains shown, Fully human mAb from XenoMouse; hybridoma supernatant) VH: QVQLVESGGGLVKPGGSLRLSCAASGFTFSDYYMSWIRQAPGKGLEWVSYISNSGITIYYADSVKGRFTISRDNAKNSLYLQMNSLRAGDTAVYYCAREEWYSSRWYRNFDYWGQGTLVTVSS VL: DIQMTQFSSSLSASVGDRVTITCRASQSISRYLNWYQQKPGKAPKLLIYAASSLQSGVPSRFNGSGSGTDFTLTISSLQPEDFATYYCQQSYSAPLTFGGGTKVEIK yes

Check this binder for % Inhibition of VEGF165-mediated pTyr Activity, n = 3 at or above 50%: anti-KDR monoclonal antibody 22B8 (antibody, V domains shown, Fully human mAb from XenoMouse (IgG2 or IgG4 strain); hybridoma supernatant) VH: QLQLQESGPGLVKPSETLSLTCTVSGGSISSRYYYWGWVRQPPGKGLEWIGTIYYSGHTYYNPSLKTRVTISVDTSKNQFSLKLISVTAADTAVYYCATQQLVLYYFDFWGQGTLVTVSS VL: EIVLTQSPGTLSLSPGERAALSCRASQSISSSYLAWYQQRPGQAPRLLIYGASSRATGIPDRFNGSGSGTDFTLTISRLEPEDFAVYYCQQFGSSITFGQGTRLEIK yes
